Below, each entry is listed with its recorded melting point.

Q) Can you share its melting point? I mean this molecule: FC(F)(F)c1ccc(/C=C/c2nc(COc3ccc(CCCCn4cncn4)nn3)co2)cc1
A) 145 to 146 °C

New cases:
Q) Can you share its melting point? I mean this molecule: FC(F)(F)c1ccc(/C=C/c2nc(COc3ncc(CCCCn4cccn4)cn3)co2)cc1
A) 156 to 157 °C

Q) Can you share its melting point? I mean this molecule: FC(F)(F)Oc1ccc(/C=C/c2nc(COc3cnc(CCCCn4cncn4)cn3)co2)cc1
A) 121 to 123 °C

Q) Can you share its melting point? I mean this molecule: Fc1cc(C(F)(F)F)ccc1/C=C/c1nc(COc2ccc(CCCCn3cncn3)nn2)co1
A) 141 to 143 °C

Q) Can you share its melting point? I mean this molecule: Clc1ccc(/C=C/c2nc(COc3cnc(CCCCn4cncn4)cn3)co2)cc1
A) 157 to 158 °C

Q) Can you share its melting point? I mean this molecule: FC(F)(F)Oc1ccc(/C=C/c2nc(COc3ncc(CCCCn4cccn4)cn3)co2)cc1
A) 143 to 145 °C

Q) Can you share its melting point? I mean this molecule: Clc1ccc(/C=C/c2nc(COc3ccc(CCCCn4cncn4)nn3)co2)cc1
A) 165 to 167 °C

Q) Can you share its melting point? I mean this molecule: Clc1ccc(/C=C/c2nc(COc3ncc(CCCCn4cccn4)cn3)co2)cc1
A) 149 to 150 °C

Q) Can you share its melting point? I mean this molecule: FC(F)(F)c1ccc(/C=C/c2nc(COc3cnc(CCCCn4cncn4)cn3)co2)cc1
A) 147 to 148 °C
